Values were extracted from patent US20220249431A1.

Listed here are compounds together with their documented pIC50.
tested on: C. glabrata biofilm; assay: Biofilm inhibition concentration (XTT); type: cell-based, Candida glabrata; conditions: Nakaseomyces glabratus, read-out: BIC50
// returns pIC50 (minus log10 of molar concentration), number only

Recall and state the measured pIC50 for O=c1cc(-c2ccccc2)oc2cc(O)ccc12 [7-hydroxyflavone] .
4.76

Report pIC50, nothing else, for this compound: O=c1c(O)c(-c2ccccc2)oc2cc(O)ccc12 [3,7-dihydroxyflavone]
4.20

* * *

Observed MIC50 for C. glabrata, reported per entry below.
Just the number please, in µM, no unit attached.

Study these solved cases before continuing.
>>> obs_value("O=c1cc(-c2ccccc2)oc2cc(O)c(O)cc12 [6,7-dihydroxyflavone]")
15.7
>>> obs_value("O=c1c(O)c(-c2cccc(O)c2)oc2ccccc12 [3,3′-dihydroxyflavone]")
5.9
>>> obs_value("O=c1c(O)c(-c2ccccc2O)oc2ccccc12 [2′,3-dihydroxyflavone]")
53.9

Fill in reported MIC50 for this entry: O=c1c(O)c(-c2ccccc2)oc2ccccc12 [3-hydroxyflavone]
6.2

Read off the recorded MIC50 for O=c1c(O)c(-c2ccccc2)oc2ccc(O)cc12 [3,6-dihydroxyflavone]
7.9
